Values were extracted from the RNAGym collection of RNA variant scans (doi:10.1093/molbev/msab373).

B1: Azoarcus group I ribozyme (parent)
chain: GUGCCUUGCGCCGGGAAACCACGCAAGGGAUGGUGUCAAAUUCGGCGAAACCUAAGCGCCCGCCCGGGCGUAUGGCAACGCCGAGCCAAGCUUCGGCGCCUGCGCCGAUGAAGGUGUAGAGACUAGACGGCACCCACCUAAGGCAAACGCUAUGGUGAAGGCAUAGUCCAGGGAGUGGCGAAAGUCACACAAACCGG

# Variants of: B1
# PROTOCOL_DESCRIPTION: reverse-splicing fitness (ratio to wild type); higher = more active; in vitro selection; Mg2+ level not given
Consider the reported reverse-splicing fitness of an entry and match it to a band in band A: < 0.008; band B: ≥ 0.008 and < 0.02; band C: ≥ 0.02

Answered cases to consult:
C82U A120C C150A :: band C
C82A A111U A120C U176C :: band C

Band for A120U C150U C169A U176G ? band A

Band for C82G C169U ? band B

Band for A111U C150A C169G U176C ? band C

Band for C82G A111G A120U C150U C169G U176G ? band A

Band for C82G A111U A120U A145G C150U C169A U176C ? band A
